Biological target: glucagon receptor (human, UniProt P47871 26-477)
Sequence (P47871 26-477): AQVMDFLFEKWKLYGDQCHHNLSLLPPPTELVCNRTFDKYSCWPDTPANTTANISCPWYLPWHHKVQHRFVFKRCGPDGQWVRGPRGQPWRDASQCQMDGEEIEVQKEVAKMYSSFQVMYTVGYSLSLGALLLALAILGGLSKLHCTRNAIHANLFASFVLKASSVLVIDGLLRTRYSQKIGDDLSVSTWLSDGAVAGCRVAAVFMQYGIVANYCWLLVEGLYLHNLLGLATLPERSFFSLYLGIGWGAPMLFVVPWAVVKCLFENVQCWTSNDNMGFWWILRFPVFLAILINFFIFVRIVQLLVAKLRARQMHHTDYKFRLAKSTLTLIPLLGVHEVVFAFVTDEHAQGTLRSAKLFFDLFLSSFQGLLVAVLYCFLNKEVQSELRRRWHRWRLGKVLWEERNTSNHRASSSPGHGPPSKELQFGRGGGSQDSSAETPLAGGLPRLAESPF
Experiment: cell-based or functional assay
Starred links: 1 amine or outer side, 2 acyl side, 3 side chain; linkers in the order of their positions; H or OH if unused. Non-standard residues stand in square brackets, D forms with d. Groups on a side chain read outwards from the residue. Primed or numbered codes have the meaning given here. No end group written: not given here. *: point of attachment. γGlu = O=C(O)[C@H](CCC(=O)[*:2])N[*:1]; Stearoyl = CCCCCCCCCCCCCCCCCC(=O)*; αMeF = C[C@](N)(Cc1ccccc1)C(=O)O; αMeK = C[C@](N)(CCCCN)C(=O)O; αMeS = C[C@](N)(CO)C(=O)O; PEG2′ = not defined here; Aib = CC(C)(N)C(=O)O
Provide the reported Primary assay EC50 (cAMP), n1 of each item.
Number plus unit, in that order.

// query Given HXEGTFTSDVSSYLEGQAAKEFIAWLVKGRK (Aib 2; K(ε-γE-Palmitoyl) after R30; C-terminal amide) [SEQ ID NO 5] , state its recorded Primary assay EC50 (cAMP), n1.
// result 81 nM

// query Given H[Aib]EGS[αMeF]TSDVSK([PEG2′-PEG2′-γGlu-Stearoyl])YLEGEAAEE[αMeF]IA[αMeF]VVEGG-NH2 [SEQ ID NO 58] , state its recorded Primary assay EC50 (cAMP), n1.
// result 25 nM

// query Given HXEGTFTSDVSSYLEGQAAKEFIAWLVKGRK (Aib 2; K(ε-(PEG)2-(PEG)2-γE-Stearate) after R30; C-terminal amide) [SEQ ID NO 6] , state its recorded Primary assay EC50 (cAMP), n1.
// result 22 nM

// query Given HXEGTFTSDVXSYLEGQAAKEFIAWLVKGR (Aib 2; Aib 11; C-terminal amide) [SEQ ID NO 22] , state its recorded Primary assay EC50 (cAMP), n1.
// result 390 nM

// query Given HXEGTFTSDVSSYLEGQAAKEFIAWLVKGR (Aib 2; α-MeSer 11; C-terminal amide) [SEQ ID NO 21] , state its recorded Primary assay EC50 (cAMP), n1.
// result 340 nM

// query Given H[Aib]EGS[αMeF]TSDV[αMeS]S[αMeF]LEGEAAK([PEG2′-PEG2′-PEG2′-Stearoyl])EFIA[αMeF]VV[αMeK]GG-NH2 [SEQ ID NO 54] , state its recorded Primary assay EC50 (cAMP), n1.
// result 26 nM

// query Given H[Aib]EGS[αMeF]TDDV[αMeS]S[αMeF]LEGEAAK([PEG2′-PEG2′-γGlu-Stearoyl])E[αMeF]IA[αMeF]VV[αMeK]GG-NH2 [SEQ ID NO 36] , state its recorded Primary assay EC50 (cAMP), n1.
// result 84 nM

// query Given H[Aib]EGS[αMeF]TSDVSK([PEG2′-PEG2′-PEG2′-Stearoyl])YLEGEAAEE[αMeF]IA[αMeF]VVEGG-NH2 [SEQ ID NO 62] , state its recorded Primary assay EC50 (cAMP), n1.
// result 25 nM

// query Given H[Aib]EGS[αMeF]TSDVSK([PEG2′-PEG2′-γGlu-Stearoyl])YLEGEAAKE[αMeF]IA[αMeF]VVEGG-NH2 [SEQ ID NO 57] , state its recorded Primary assay EC50 (cAMP), n1.
// result 25 nM

// query Given H[Aib]EGS[αMeF]TSDV[αMeS]S[αMeF]LEGEAAK([PEG2′-PEG2′-γGlu-Stearoyl])E[αMeF]IA[αMeF]VV[αMeK]GG-NH2 [SEQ ID NO 3] , state its recorded Primary assay EC50 (cAMP), n1.
// result 25 nM
